- Read-out: Plasminogen activator inhibitor-1 (PAI1), SERPINE1 (gene 5054)
- assay.remarks: BSK_hDFCGF_PAI1: BioMAP Diversity Plus: hDFCGF Assay for Plasminogen activator inhibitor-1 (PAI1) Biomarker Activity (AID 2283066)
- stated.conditions: primary human foreskin fibroblasts; actives raise or lower the signal
Calls of active or inactive are those of the source. How the source made its calls: active means hit-call score of the fitted dose curve at least 0.9, where 1 is the maximum; inactive means score below 0.9.
Classes to choose from: y (active), n (inactive)

Before answering, review these 3 worked examples.
CCOP(=O)(SC(C)CC)N1CCSC1=O (centres undefined)    n
CCc1cccc(CC)c1N(COC)C(=O)CCl    n
CC[C@H](C)[C@H]1O[C@]2(C=C[C@@H]1C)C[C@@H]1C[C@@H](C/C=C(\C)[C@@H](O[C@H]3C[C@H](OC)[C@@H](O[C@H]4C[C@H](OC)[C@@H](NC)[C@H](C)O4)[C@H](C)O3)[C@@H](C)/C=C/C=C3\CO[C@@H]4[C@H](O)C(C)=C[C@@H](C(=O)O1)[C@]34O)O2    y

In this assay, the call recorded for COP(=O)(NC(C)=O)SC (centres undefined) was what?
n

Look up the recorded call for CC(C)=CC1C(C(=O)OCN2C(=O)C3=C(CCCC3)C2=O)C1(C)C (centres undefined) in this test.
y

# lookup: test call for CCC(=NOC/C=C/Cl)C1=C(O)CC(C2CCOCC2)CC1=O (centres undefined)
n

Check the results log: what was the call for `CCOP(=S)(OCC)Oc1ccc2c(C)c(Cl)c(=O)oc2c1` ?
n

Given `CC1=NNC(=O)N(/N=C/c2cccnc2)C1` , state the outcome it received in this test.
n

Could you kindly confirm the outcome this assay logged for `CCOP(=S)(OCC)Oc1cc(C)nc(C(C)C)n1` ?
n
